Origin of the recorded values: patent US20220153766A1

Molecular target: Ba/F3_EGFR del19/T790M/C797S cells (Homo sapiens, UniProt P00533, T790M/C797S, cells depend on it, form not given)
Sequence (P00533 with tags, fused parts or gaps DEL746-750/T790M/C797S, form open): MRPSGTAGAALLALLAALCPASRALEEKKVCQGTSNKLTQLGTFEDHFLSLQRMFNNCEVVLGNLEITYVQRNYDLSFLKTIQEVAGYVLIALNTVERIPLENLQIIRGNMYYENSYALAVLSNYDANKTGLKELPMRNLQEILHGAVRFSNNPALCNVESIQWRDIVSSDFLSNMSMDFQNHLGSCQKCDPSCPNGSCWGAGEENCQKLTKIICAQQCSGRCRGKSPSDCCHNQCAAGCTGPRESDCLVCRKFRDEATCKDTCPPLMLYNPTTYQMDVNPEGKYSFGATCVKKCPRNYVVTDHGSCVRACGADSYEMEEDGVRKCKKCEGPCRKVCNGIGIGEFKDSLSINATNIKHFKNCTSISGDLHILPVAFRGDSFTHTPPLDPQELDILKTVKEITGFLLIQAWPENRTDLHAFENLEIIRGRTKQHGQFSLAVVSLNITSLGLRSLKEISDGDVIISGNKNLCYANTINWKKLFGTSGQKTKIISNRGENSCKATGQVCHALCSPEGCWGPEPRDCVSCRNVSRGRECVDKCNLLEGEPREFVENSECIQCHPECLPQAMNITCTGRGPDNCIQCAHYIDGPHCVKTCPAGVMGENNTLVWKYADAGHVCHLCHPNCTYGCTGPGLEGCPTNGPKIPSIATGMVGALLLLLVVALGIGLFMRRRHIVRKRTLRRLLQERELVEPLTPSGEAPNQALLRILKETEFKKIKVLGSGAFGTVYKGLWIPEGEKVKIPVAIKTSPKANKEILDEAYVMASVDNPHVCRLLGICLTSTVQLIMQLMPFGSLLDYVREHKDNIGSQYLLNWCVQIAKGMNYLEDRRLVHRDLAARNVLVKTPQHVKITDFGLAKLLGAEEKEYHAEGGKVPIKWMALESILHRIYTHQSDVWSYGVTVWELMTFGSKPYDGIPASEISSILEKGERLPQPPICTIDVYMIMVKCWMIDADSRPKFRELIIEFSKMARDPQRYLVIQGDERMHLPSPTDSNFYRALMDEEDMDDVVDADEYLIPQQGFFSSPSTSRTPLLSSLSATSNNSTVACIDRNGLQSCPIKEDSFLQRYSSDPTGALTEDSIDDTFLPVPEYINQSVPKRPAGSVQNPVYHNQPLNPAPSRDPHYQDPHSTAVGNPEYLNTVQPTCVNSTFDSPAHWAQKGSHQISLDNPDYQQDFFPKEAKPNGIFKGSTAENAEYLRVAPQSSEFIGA
Assay: Ba/F3_EGFR (del19-T790M-C797S) cell proliferation inhibition, CTG, method 1
Assay type: cell-based
Details: 700 cells/well, 72 h, read-out: Ba/F3_EGFR (del19-T790M-C797S) cell proliferation inhibition (IC50 value) Method 1
Overview of recorded GI50 for various compounds

{"compound": "CN(C)C/C=C/C(=O)N1CCN2c3ccc(Nc4ncc(Cl)c(Nc5ccccc5P(C)(C)=O)n4)cc3OC[C@H]2C1 [Compound 18R]", "readout": "GI50", "meas.value": "100 to 200 nM"}

Please look up its GI50: CN(C)CCN1CCN2c3ccc(Nc4ncc(Cl)c(Nc5ccccc5P(C)(C)=O)n4)cc3OC[C@H]2C1 [Compound 14R]
100 to 200 nM

Given C=CC(=O)N1CCC(N2CCN3c4ccc(Nc5ncc(Cl)c(Nc6ccccc6P(C)(C)=O)n5)cc4OC[C@H]3C2)CC1 [Compound 22R] , state its recorded GI50.
< 20 nM

Value lookup for GI50; key = C=CC(=O)N1CCN2c3ccc(Nc4ncc(Cl)c(Nc5ccccc5P(C)(C)=O)n4)cc3OC[C@H]2C1 [Compound 6R]
20 to 100 nM

GET /values?readout=GI50&item= COCCN1CCN2c3ccc(Nc4ncc(Cl)c(Nc5ccccc5P(C)(C)=O)n4)cc3OC[C@H]2C1 [Compound 10R]
20 to 100 nM

So what's the measured GI50 for this one? Cc1cc(Nc2ncc(Cl)c(Nc3ccccc3P(C)(C)=O)n2)cc2c1N1CCNC[C@@H]1CO2 [Compound 23R]
20 to 100 nM

Which GI50 value is on record for CP(C)(=O)c1ccccc1Nc1nc(Nc2ccc3c(c2)OC[C@@H]2CNCCN32)ncc1Cl [Compound 4S] ?
20 to 100 nM

Suppose we examine the compound CP(C)(=O)c1ccccc1Nc1nc(Nc2ccc3c(c2)OC[C@H]2CN(S(=O)(=O)C4CC4)CCN32)ncc1Cl [Compound 2R] ; what GI50 value has been reported?
20 to 100 nM
